# Experiment: Determination of compound Cmax and AUC after oral gavage (plasma LC-MS/MS)
# Assay type: in vivo, Sprague-Dawley rats
# Applied conditions: Sprague-Dawley, rat, plasma, po, Structure (I) examples, Table 15, plasma 0.5-4 h
Attribute measured: Cmax

Example results:
{"Molecule": "CCN(CC)c1ccc(NC(=O)c2cccc(CCCOCCOCCOCCOCCNS(=O)(=O)c3ccc(C(=O)N(CCOC)CCOCCOCCOCCOCCOCCOCCOC)cc3)c2)c(-c2cc(C(=O)NCc3cccc(C(F)(F)F)c3)ccn2)c1 [Example 272]", "Cmax": "< 0.01 µg/mL"}
{"Molecule": "CCN(CC)c1ccc(NC(=O)c2cccc(CCCOCCOCCOCCOCCOCCC(=O)O)c2)c(-c2cc(C(=O)NCc3cccc(C(F)(F)F)c3)ccn2)c1 [Example 300]", "Cmax": "< 0.01 µg/mL"}
{"Molecule": "CN(CCOCCOCCOCCC(=O)O)C(=O)Cc1cccc(SCc2cccc(C(=O)Nc3ccc(Cl)cc3-c3cc(C(=O)N[C@H]4CCCc5ccccc54)ccn3)c2)c1 [Example 239]", "Cmax": "< 0.03 µg/mL"}

Please look at the following molecule next.
Could you tell me which Cmax is on file for CCN(CC)c1ccc(NC(=O)c2cccc(CCCOCCOCCOCCOCCNC(=O)c3cccc(CCCOCCOCCOCCOCCOCCOCCOCCOCCOC)c3)c2)c(-c2cc(C(=O)NCc3cccc(C(F)(F)F)c3)ccn2)c1 [Example 271] ?
< 0.03 µg/mL

###

# System: rat NaP2b (SLC34A2) (Rattus norvegicus)
# Construct: host or cells: HEK293
# Experiment: Inhibition of NaP2b-mediated Pi (33P) uptake in transfected HEK293 cells, rat NaP2b
# Format: cell-based
# Applied conditions: 33P Pi uptake, 0.1 mM phosphate, value given as pIC50 range
Attribute measured: IC50

Example results:
{"Compound": "CN(CCN1CCC[C@H]1C(=O)NCCOCCOCCOCCC(=O)OC(C)(C)C)C(=O)c1cccc(C(=O)Nc2ccc(N3CCCCC3)cc2-c2cc(C(=O)N[C@H]3CCCc4ccccc43)ccn2)c1 [Example 192]", "IC50": "< 1 µM"}
{"Compound": "COc1c(C(=O)Nc2ccc(N3CCCCC3)cc2-c2cc(C(=O)NCc3cccc(C(F)(F)F)c3)ccn2)cccc1C(=O)N(C)CCN1CCOCC1 [Example 11.3]", "IC50": "10 to 31.6 µM"}
{"Compound": "O=C(O)CCSCc1cccc(C(=O)Nc2ccc(N3CCCCC3)cc2-c2cc(OCc3cccc(C(F)(F)F)c3)ccn2)c1 [Example 98]", "IC50": "10 to 31.6 µM"}
{"Compound": "CN(CCN1CCOCC1)C(=O)CCOCCOCCOCCOCCSCc1cccc(C(=O)Nc2ccc(N3CCCCC3)cc2-c2cc(C(=O)NCc3cccc(C(F)(F)F)c3)ccn2)c1 [Example 150]", "IC50": "10 to 31.6 µM"}
{"Compound": "COCCNC(=O)[C@H]1CCCN(C(=O)c2cccc(C(=O)Nc3ccc(N4CCCCC4)cc3-c3cc(C(=O)NCc4cccc(C(F)(F)F)c4)ccn3)c2)C1 [Example 4.14]", "IC50": "1 to 7.94 µM"}

Give measured IC50 for every item shown.
1. COCCOCCOCCOCCOCCOCCOCCNC(=O)[C@H]1CCCN(C(=O)c2cccc(C(=O)Nc3ccc(N4CCCCC4)cc3-c3cc(C(=O)N[C@H]4CCCc5ccccc54)ccn3)c2)C1 [Example 256]
2. CCN(CC)c1ccc(NC(=O)c2cccc(CCCOCCOCCOCCOCCOCCC(=O)O)c2)c(-c2cc(C(=O)N[C@H]3CCCc4ccccc43)ccn2)c1 [Example 306]
3. CN(CCN1CCOCC1)C(=O)c1cccc(C(=O)Nc2ccc(N3CCCCC3)cc2-c2cc(C(=O)N[C@@H]3CCCc4ccccc43)ccn2)c1 [Example 97]
4. COCCOCCOCCOCCOCCOCCOCCOCCOCc1cccc(C(=O)Nc2ccc(OC3CCC3)cc2-c2cc(C(=O)N[C@H]3CCCc4ccccc43)ccn2)c1 [Example 205]
5. CN(CCN1CCN(C(=O)OC(C)(C)C)CC1)Cc1cccc(C(=O)Nc2ccc(N3CCCCC3)cc2-c2cc(C(=O)NCc3cccc(C(F)(F)F)c3)ccn2)c1 [Example 38]
6. O=C(O)c1ccc(SCc2cccc(C(=O)Nc3ccc(N4CCCCC4)cc3-c3cc(C(=O)NCc4cccc(C(F)(F)F)c4)ccn3)c2)nc1 [Example 8.15]

1 to 7.94 µM
< 1 µM
1 to 7.94 µM
< 1 µM
10 to 31.6 µM
1 to 7.94 µM

###

# System: rat NaP2b (SLC34A2) (Rattus norvegicus, UniProt Q9JJ09)
# Construct: host or cells: HEK293
# Sequence (Q9JJ09 whole entry): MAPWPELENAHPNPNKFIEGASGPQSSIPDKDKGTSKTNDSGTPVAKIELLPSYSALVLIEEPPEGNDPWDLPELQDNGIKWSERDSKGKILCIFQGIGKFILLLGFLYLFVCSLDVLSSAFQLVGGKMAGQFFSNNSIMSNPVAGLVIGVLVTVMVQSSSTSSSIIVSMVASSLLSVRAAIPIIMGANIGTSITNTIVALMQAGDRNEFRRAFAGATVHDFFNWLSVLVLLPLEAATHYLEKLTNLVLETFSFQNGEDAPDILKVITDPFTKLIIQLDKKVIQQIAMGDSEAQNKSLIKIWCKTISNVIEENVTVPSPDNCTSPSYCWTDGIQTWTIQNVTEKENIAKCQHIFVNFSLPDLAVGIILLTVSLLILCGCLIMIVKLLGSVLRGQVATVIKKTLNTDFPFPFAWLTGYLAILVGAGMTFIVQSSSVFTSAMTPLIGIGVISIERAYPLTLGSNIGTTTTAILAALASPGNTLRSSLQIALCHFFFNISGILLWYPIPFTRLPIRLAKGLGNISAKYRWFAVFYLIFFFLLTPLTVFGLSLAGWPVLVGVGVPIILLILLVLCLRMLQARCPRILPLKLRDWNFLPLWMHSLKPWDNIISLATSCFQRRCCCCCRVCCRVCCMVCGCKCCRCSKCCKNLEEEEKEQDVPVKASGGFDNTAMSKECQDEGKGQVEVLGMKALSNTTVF
# Experiment: Inhibition of NaP2b-mediated Pi (33P) uptake in transfected HEK293 cells, rat NaP2b
# Type: cell-based
# Applied conditions: 33P Pi uptake, 0.1 mM phosphate, value given as pIC50 range
pIC50: −log10 of the molar value.
Kindly supply the reported pIC50 values for the records listed here.

Example results:
{"Compound": "CC(C)(C)OC(=O)NC(CSCc1cccc(C(=O)Nc2ccc(N3CCCCC3)cc2-c2cc(C(=O)NCc3cccc(C(F)(F)F)c3)ccn2)c1)C(=O)O (stereo not drawn)", "pIC50": "4.50 to 5.00"}
{"Compound": "CC(=O)NC1CCN(C(=O)c2cccc(C(=O)Nc3ccc(N4CCCCC4)cc3-c3cc(C(=O)NCc4cccc(C(F)(F)F)c4)ccn3)c2)CC1", "pIC50": "4.50 to 5.00"}

Could you tell me which pIC50 is on file for Cc1ccc(CNc2cc(-c3cc(N4CCCCC4)ccc3NC(=O)c3cccc(CSCCC(=O)O)c3)ncn2)cc1C ?
4.50 to 5.00

###

Kindly supply the reported IC50 values for the records listed here.
# System: rat NaP2b (SLC34A2) (Rattus norvegicus)
# Construct: host or cells: HEK293
# Experiment: Inhibition of NaP2b-mediated Pi (33P) uptake in transfected HEK293 cells, rat NaP2b
# Type: cell-based
# Applied conditions: 33P Pi uptake, 0.1 mM phosphate, value given as pIC50 range

Example results:
{"Mol smiles": "O=C(NCc1cccc(C(F)(F)F)c1)c1ccnc(-c2cc(N3CCCCC3)ccc2NC(=O)c2cccc(CSCCS(=O)(=O)O)c2)c1", "IC50": "10 to 31.6 µM"}
{"Mol smiles": "CN(CCOCCOCCOCCC(=O)O)C(=O)c1cccc(C(=O)Nc2ccc(Cl)cc2-c2cc(C(=O)NCc3cccc(C(F)(F)F)c3)ccn2)c1", "IC50": "10 to 31.6 µM"}
{"Mol smiles": "CCN(CC)c1ccc(NC(=O)c2cccc(CSCCOCCOCCOCCOCCOCCOCCOCCOC)c2)c(-c2cc(C(=O)NCc3cccc(C(F)(F)F)c3)ccn2)c1", "IC50": "< 1 µM"}

Give measured IC50 for every item shown.
1. COc1ccccc1CNC(=O)c1ccnc(-c2cc(N3CCCCC3)ccc2NC(=O)c2cccc(C(=O)N(C)CCN3CCOCC3)c2)c1
2. O=C(O)CCSCc1cccc(C(=O)Nc2ccc(N3CCCCC3)cc2-c2cc(NC(=O)c3cccc(C(F)(F)F)c3)ccn2)c1
3. CCN(CC)CCN(C)C(=O)c1cccc(SCc2cccc(C(=O)Nc3ccc(N4CCCCC4)cc3-c3cc(C(=O)NCc4cccc(C(F)(F)F)c4)ccn3)c2)c1

["1 to 7.94 µM", "10 to 31.6 µM", "10 to 31.6 µM"]

###

# Experiment: Determination of compound Cmax and AUC after oral gavage (plasma LC-MS/MS)
# Type: in vivo, Sprague-Dawley rats
# Applied conditions: Sprague-Dawley, Structure (I) examples, Table 15, rat, actual oral dose 3-15 mg/kg, plasma 0.5-4 h
Attribute measured: AUC

Could you tell me which AUC is on file for CN(CCN1CCOCC1)C(=O)c1cccc(C(=O)Nc2ccc(N3CCCCC3)cc2-c2cc(C(=O)N[C@H]3CCCc4ccccc43)ccn2)c1.Cl [Example 37] ?
< 30 ng·h/mL

###

Kindly supply the reported IC50 values for the records listed here.
# System: rat NaP2b (SLC34A2) (Rattus norvegicus, UniProt Q9JJ09)
# Construct: host or cells: HEK293
# Experiment: Inhibition of NaP2b-mediated Pi (33P) uptake in transfected HEK293 cells, rat NaP2b
# Assay type: cell-based
# Applied conditions: 33P Pi uptake, 0.1 mM phosphate, value given as pIC50 range
# Method: HEK293 cells were obtained from the American Type Culture collection and propagated per their instructions. […] The sequence of the human protein was mutated to insert a threonine after residue 37, and to introduce a N39D mutation. […] Cells were lysed by addition of 20 μL 0.1% Tween 80 followed by 100 μL scintillation fluid, and counted using a TopCount (Perkin Elmer). pIC50 (the negative log of the IC50) values of the test compounds were calculated using GraphPad Prism.

Example results:
{"Mol smiles": "CN(CCN1CCN(S(C)(=O)=O)CC1)C(=O)c1cccc(C(=O)Nc2ccc(N3CCCCC3)cc2-c2cc(C(=O)NCc3cccc(C(F)(F)F)c3)ccn2)c1", "IC50": "1 to 7.94 µM"}
{"Mol smiles": "COCCOCCOCCOCCOCCOCCOCCN(C)CCN(C)C(=O)c1cccc(C(=O)Nc2ccc(N3CCCCC3)cc2-c2cc(C(=O)N[C@H]3CCCc4ccccc43)ccn2)c1", "IC50": "1 to 7.94 µM"}

Please look at the following compound next.
Could you tell me which IC50 is on file for O=C(NCc1cccc(C(F)(F)F)c1)c1ccnc(-c2cc(N3CCCCC3)ccc2NC(=O)c2cccc(CCCOCCOCCOCCOCCC(=O)N(CCO)CCO)c2)c1 ?
1 to 7.94 µM
